# credit: paper PMC10247784

# TARGET_OF_ASSAY: human TAS2R4 (Homo sapiens)
# Construct: expressed in transfected cells; host or cells: HEK293T-Gα16gust44
# Sequence (Q9NYW5 whole entry): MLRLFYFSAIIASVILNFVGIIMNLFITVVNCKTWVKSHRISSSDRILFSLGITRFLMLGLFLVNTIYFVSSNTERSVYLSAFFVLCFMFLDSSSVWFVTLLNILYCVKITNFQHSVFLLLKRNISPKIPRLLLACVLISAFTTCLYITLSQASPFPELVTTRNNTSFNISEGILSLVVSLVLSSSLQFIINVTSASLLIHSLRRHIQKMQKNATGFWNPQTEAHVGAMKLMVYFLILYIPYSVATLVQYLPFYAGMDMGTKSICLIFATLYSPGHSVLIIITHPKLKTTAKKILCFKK
# METHOD_DESCRIPTION: Calcium imaging assay (FLIPR), HEK293T-Gα16gust44 cells transfected with human TAS2R4; note: test concentration or dose not given here
# Type: cell-based
# MEASUREMENT_CONTEXT: Time (s) 185.547
Exercise: state measured RLU, fluorescence trace for each of the compounds provided.
Write the figure, then the unit, nothing else.

Q: Item C[C@H](CCC(=O)O)[C@H]1CC[C@H]2[C@@H]3[C@H](O)C[C@@H]4C[C@H](O)CC[C@]4(C)[C@H]3C[C@H](O)[C@]12C [Cholic Acid, cholic acid] has what recorded RLU, fluorescence trace?
Result: 242.782 RLU

Q: Which RLU, fluorescence trace reading was recorded for the compound C[C@H](CCC(=O)NCC(=O)O)[C@H]1CC[C@H]2[C@@H]3[C@H](O)C[C@@H]4C[C@H](O)CC[C@]4(C)[C@H]3C[C@H](O)[C@]12C [Glycocholic Acid, glycocholic acid] ?
Result: 225.911 RLU

Q: Given C[C@H](CCC(=O)NCCS(=O)(=O)O)[C@H]1CC[C@H]2[C@@H]3CC[C@@H]4C[C@H](O)CC[C@]4(C)[C@H]3CC[C@]12C [Taurolithocholic Acid, taurolithocholic acid] , state its recorded RLU, fluorescence trace.
Result: 185.763 RLU

Q: Param item = C[C@H](CCC(=O)NCCS(=O)(=O)O)[C@H]1CC[C@H]2[C@@H]3[C@H](O)C[C@@H]4C[C@H](O)CC[C@]4(C)[C@H]3C[C@H](O)[C@]12C [Taurocholic Acid, taurocholic acid] ; retrieve measured RLU, fluorescence trace.
Result: 372.463 RLU

Q: Look at this compound and give its reported RLU, fluorescence trace. C[C@H](CCC(=O)O)[C@H]1CC[C@H]2[C@@H]3[C@@H](O)C[C@@H]4C[C@H](O)CC[C@]4(C)[C@H]3CC[C@]12C [Ursodeoxycholic Acid, ursodeoxycholic acid]
Result: 128.186 RLU

Q: For the compound shown here, C[C@H](CCC(=O)O)[C@H]1CC[C@H]2[C@@H]3CC[C@@H]4C[C@H](O)CC[C@]4(C)[C@H]3C[C@H](O)[C@]12C [Deoxycholic Acid, deoxycholic acid] , give the reported RLU, fluorescence trace.
Result: 363.986 RLU

* * *

Record form. Attribute: Efficacy = maximal amplitude (ΔF/F). Fill in for each entry.
# TARGET_OF_ASSAY: human TAS2R1 (Homo sapiens)
# Construct: expressed in transfected cells; host or cells: HEK293T-Gα16gust44
# Sequence (Q9NYW7 whole entry): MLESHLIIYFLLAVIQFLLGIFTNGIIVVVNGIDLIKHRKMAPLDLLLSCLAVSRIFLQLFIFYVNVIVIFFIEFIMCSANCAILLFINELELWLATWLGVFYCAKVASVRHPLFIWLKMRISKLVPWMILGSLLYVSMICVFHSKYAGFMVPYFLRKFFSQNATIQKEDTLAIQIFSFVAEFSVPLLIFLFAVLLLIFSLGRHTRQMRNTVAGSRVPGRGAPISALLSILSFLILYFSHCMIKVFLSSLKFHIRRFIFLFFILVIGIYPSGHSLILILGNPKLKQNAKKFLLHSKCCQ
# METHOD_DESCRIPTION: Calcium imaging assay (FLIPR), HEK293T-Gα16gust44 cells transfected with human TAS2R1
# Type: cell-based
# MEASUREMENT_CONTEXT: TAS2R1; bile acids; mean
Note: the reply should be a number with no unit written.

Q: Please report the recorded Efficacy = maximal amplitude (ΔF/F) for C[C@H](CCC(=O)O)[C@H]1CC[C@H]2[C@@H]3[C@@H](O)C[C@@H]4C[C@H](O)CC[C@]4(C)[C@H]3CC[C@]12C .
Result: 0.1201

Q: // Efficacy = maximal amplitude (ΔF/F) lookup, key: C[C@H](CCC(=O)O)[C@H]1CC[C@H]2[C@@H]3[C@H](O)C[C@@H]4C[C@H](O)CC[C@]4(C)[C@H]3C[C@H](O)[C@]12C
Result: 0.1303

Q: Which value of Efficacy = maximal amplitude (ΔF/F) has been reported for C[C@H](CCC(=O)O)[C@H]1CC[C@H]2[C@@H]3CC[C@@H]4C[C@H](O)CC[C@]4(C)[C@H]3C[C@H](O)[C@]12C in the records?
Result: 0.1101

Q: // query Efficacy = maximal amplitude (ΔF/F) value for entry C[C@H](CCC(=O)O)[C@H]1CC[C@H]2[C@@H]3CC[C@@H]4C[C@H](O)CC[C@]4(C)[C@H]3CC[C@]12C
Result: 0.1221

Q: // returns reported Efficacy = maximal amplitude (ΔF/F) for input C[C@H](CCC(=O)O)[C@H]1CC[C@H]2[C@@H]3[C@H](O)C[C@@H]4C[C@H](O)CC[C@]4(C)[C@H]3CC[C@]12C
Result: 0.1118
